Test system: LLC mouse Lewis lung carcinoma
Assay: In vitro inhibition rate to tumor cells (MTT), LLC
Format: cell-based
Details: 50 μg/ml; Table 2 (repeated screening)
Recorded inhibition rate, Results (%) LLC, one value per entry.
Quote the value and follow it with the unit of measurement.

Below are worked cases with known answers.
CCCCNC=C1CC2(OC)OC3(CC2C(C)C)C(C)CCC13.Cl (stereo not shown) :: 1.23%
CC(C)C1CC23OC1(O)CC(C)(O)C2CCC3C (stereo not shown) :: 8.23%
C=C1CC2(OS(=O)(=O)[O-])OC3(CC2C(C)C)C(C)CCC13.[Na+] (stereo not shown) [Compound 21, Curcumol sodium sulfonate] :: 1.89%
C=C1CC2(OC(=O)c3ccccc3)OC3(CC2C(C)C)C(C)CCC13 (stereo not shown) [Compound 4, Curcumol benzoate] :: 0.23%
CCCCNC=C1CC2(O)OC3(CC2C(C)C)C(C)CCC13 (stereo not shown) :: 1.32%

Challenge: Reported inhibition rate, Results (%) LLC, compound CC(C)C1CC23OC1(O)CC(C)(O[N+](=O)[O-])C2CCC3C (stereo not shown) [Compound 36, Curcumol mononitrate without double bond] : ____
Response given: 11.56%

Challenge: How about CC(C)C1CC23OC1(O)CC(CN1CCNCC1)(N1CCNCC1)C2CCC3C.Cl (stereo not shown) [Compound 42, Curcumol bispiperazine hydrochloride] ?
Response given: 1.79%

Recorded values, source patent US7700584B2.
